Target: T1, human LTBP3-proTGFβ1 complex (human, UniProt Q9NS15 866-1039)
T1 construct: range 866-1039; also called hLTBP3-proTGFβ1; hLTBP3
T1 sequence (Q9NS15 866-1039 limits assumed, chain 1 of 2): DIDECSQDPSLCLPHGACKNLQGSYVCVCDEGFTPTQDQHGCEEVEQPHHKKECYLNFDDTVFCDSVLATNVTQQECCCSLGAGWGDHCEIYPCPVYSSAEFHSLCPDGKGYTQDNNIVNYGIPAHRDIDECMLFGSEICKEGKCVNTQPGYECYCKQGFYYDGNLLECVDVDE
T1 sequence (chain, as listed by the source limits assumed, chain 2 of 2): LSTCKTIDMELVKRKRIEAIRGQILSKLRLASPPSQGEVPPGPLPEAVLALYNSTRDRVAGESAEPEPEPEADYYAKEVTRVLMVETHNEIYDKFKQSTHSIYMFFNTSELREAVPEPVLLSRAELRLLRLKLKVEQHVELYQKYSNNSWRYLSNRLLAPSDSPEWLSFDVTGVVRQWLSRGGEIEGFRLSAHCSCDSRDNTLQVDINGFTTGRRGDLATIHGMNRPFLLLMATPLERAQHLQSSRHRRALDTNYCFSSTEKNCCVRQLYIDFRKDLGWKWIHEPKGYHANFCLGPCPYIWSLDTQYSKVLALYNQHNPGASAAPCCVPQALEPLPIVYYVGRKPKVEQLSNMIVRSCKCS
Test: BLI (Octet)
Task for the reader: assign each of the following binders its reported Kd.
One number for each entry, in nM.

Ab27 (antibody, V domains shown) VH: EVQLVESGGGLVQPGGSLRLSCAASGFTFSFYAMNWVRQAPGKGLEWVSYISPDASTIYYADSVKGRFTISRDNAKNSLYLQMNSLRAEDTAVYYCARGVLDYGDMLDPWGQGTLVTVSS VL: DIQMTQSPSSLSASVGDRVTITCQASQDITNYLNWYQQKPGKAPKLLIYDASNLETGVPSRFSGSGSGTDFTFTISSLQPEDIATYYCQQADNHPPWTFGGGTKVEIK : 0.238
Ab12 (antibody, IgG4, V domains shown) VH: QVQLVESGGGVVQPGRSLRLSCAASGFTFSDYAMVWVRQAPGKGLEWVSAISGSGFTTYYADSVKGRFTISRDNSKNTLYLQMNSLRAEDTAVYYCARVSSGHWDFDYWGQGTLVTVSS VL: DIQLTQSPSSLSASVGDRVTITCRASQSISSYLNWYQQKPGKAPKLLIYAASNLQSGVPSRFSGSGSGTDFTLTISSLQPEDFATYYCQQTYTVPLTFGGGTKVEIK : 0.183

Now look at this one.
What value of Kd has been reported for the following binder? Ab16 (antibody, V domains shown) VH: EVQLLESGGGLVQPGGSLRLSCAASGFTFSNYAMSWVRQAPGKGLEWVSAISGSGFTTYYADSVKGRFTISRDNSKNTLYLQMNSLRAEDTAVYYCARVSSGHWDFDYWGQGTLVTVSS VL: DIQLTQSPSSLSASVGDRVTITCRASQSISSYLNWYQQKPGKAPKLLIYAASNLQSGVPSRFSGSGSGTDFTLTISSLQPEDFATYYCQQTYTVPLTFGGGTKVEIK 0.132
